# SYSTEM TESTED: Prostaglandin G/H synthase 2 (Homo sapiens)
# PROTOCOL DETAILS: Inhibition of LPS-stimulated human whole blood COX-2 assessed as inhibition of PGE2 production at 10 uM by EIA
ENDPOINT NAME: inhibition (%)

COMPOUND | SYSTEM TESTED | inhibition / %
CC(C(=O)O)c1ccc(Cc2cccs2)cc1F (stereo not given) | Prostaglandin G/H synthase 2 (Homo sapiens) | 45.8
CCC(=O)C(C)Cc1ccc(C(C)C(=O)O)c(F)c1 (stereo not given) | Prostaglandin G/H synthase 2 (Homo sapiens) | 0
CC(C(=O)O)c1ccc(SC2CCCC2)cc1F (stereo not given) | Prostaglandin G/H synthase 2 (Homo sapiens) | 15.6
CC(C(=O)O)c1ccc(Cc2ccoc2)cc1F (stereo not given) | Prostaglandin G/H synthase 2 (Homo sapiens) | 58.7
CC(C(=O)O)c1ccc(Cc2ccco2)cc1F (stereo not given) | Prostaglandin G/H synthase 2 (Homo sapiens) | 64.1

[1] CCC(Cc1ccc(C(C)C(=O)O)c(F)c1)C(C)=O (stereo not given)
[2] CC(C(=O)O)c1ccc(CC2CCCC2=O)cc1 (stereo not given)
[3] CC(C(=O)O)c1cc(F)c(CC2CCCC2=O)cc1F (stereo not given)
[4] CC(C(=O)O)c1ccc(O[C@H]2CCC[C@@H]2O)cc1F (stereo not given in full)
Req: Output the entries ranked by inhibition from maximum down to minimum. Put the labels in the requested order and write them down.
Resp: 2, 4, 3, 1
